Recorded values, source ChEMBL document CHEMBL5120785.

molecular target: Estrogen receptor (Homo sapiens); assay: Binding affinity to human recombinant ERalpha by competitive fluorometric binding assay
Sequence (P03372 whole entry): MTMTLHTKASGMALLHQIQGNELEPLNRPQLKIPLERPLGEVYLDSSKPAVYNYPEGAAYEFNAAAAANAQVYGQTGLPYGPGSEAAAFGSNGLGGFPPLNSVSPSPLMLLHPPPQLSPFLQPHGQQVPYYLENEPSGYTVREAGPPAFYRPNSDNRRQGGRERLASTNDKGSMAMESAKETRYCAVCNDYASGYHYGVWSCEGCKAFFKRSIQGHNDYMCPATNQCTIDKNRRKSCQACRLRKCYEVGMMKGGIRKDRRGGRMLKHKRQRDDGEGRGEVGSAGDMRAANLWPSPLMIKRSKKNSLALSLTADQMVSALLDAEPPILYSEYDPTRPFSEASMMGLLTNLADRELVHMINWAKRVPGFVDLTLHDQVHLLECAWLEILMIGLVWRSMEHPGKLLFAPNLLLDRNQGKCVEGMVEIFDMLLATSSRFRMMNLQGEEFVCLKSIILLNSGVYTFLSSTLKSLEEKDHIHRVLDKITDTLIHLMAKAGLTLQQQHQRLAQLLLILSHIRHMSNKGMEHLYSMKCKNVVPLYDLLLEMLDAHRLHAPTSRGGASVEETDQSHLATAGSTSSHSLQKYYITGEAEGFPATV
pIC50: −log10 of the molar value.
# pIC50 values compiled below
Reported metric: pIC50

• CN1C(=O)NC(c2ccc(O)cc2)C2=C1c1ccccc1C2=O (stereo unspecified) = 4.44
• CN(C)CCN1C(=O)N(C)C2=C(C(=O)c3ccccc32)C1c1ccc(C(F)(F)F)cc1 (stereo unspecified) = 5.68
• CN(C)CCOc1ccc(C2C3=C(c4ccccc4C3=O)N(C)C(=O)N2CC(F)(F)F)cc1 (stereo unspecified) = 5.12
• CN1CCN(CCN2C(=O)N(C)C3=C(C(=O)c4ccccc43)C2c2ccc(C(F)(F)F)cc2)CC1 (stereo unspecified) = 7.14
• CN1C(=O)NC(c2ccc(C(F)(F)F)cc2)C2=C1c1ccccc1C2=O (stereo unspecified) = 4.53
• CN1C(=O)NC(c2ccc(OCCN(CCO)CCO)cc2)C2=C1c1ccccc1C2=O (stereo unspecified) = 8.15
• CN1C(=O)NC(c2ccc(OCCN3CCN(CC(F)(F)F)CC3)cc2)C2=C1c1ccccc1C2=O (stereo unspecified) = 5.89
• CN1C(=O)N(N(C)CCC(Oc2ccc(C(F)(F)F)cc2)c2ccccc2)C(c2ccc(C(F)(F)F)cc2)C2=C1c1ccccc1C2=O (stereo unspecified) = 5.88
• CN1C(=O)N(CC(F)(F)F)C(c2ccc(OCCN3CCN(CC(F)(F)F)CC3)cc2)C2=C1c1ccccc1C2=O (stereo unspecified) = 6.03
• CN1CCN(CCOc2ccc(C3C4=C(c5ccccc5C4=O)N(C)C(=O)N3CC(F)(F)F)cc2)CC1 (stereo unspecified) = 5.52
• CN(CCOc1ccc(C2NC(=O)N(C)C3=C2C(=O)c2ccccc23)cc1)CCC(Oc1ccc(C(F)(F)F)cc1)c1ccccc1 (stereo unspecified) = 6.09
• CN(C)CCOc1ccc(C2NC(=O)N(C)C3=C2C(=O)c2ccccc23)cc1 (stereo unspecified) = 5.50
• CN1C(=O)N(CCN2CCNCC2)C(c2ccc(C(F)(F)F)cc2)C2=C1c1ccccc1C2=O (stereo unspecified) = 7.68
• CN1C(=O)N(CCN(CCO)CCO)C(c2ccc(C(F)(F)F)cc2)C2=C1c1ccccc1C2=O (stereo unspecified) = 8.40
• CN1CCN(CCOc2ccc(C3NC(=O)N(C)C4=C3C(=O)c3ccccc34)cc2)CC1 (stereo unspecified) = 6.31
• CN1C(=O)NC(c2ccc(OCCN3CCNCC3)cc2)C2=C1c1ccccc1C2=O (stereo unspecified) = 6.36

* * *

biological target: UniProtKB Q92731
Sequence (Q92731 whole entry): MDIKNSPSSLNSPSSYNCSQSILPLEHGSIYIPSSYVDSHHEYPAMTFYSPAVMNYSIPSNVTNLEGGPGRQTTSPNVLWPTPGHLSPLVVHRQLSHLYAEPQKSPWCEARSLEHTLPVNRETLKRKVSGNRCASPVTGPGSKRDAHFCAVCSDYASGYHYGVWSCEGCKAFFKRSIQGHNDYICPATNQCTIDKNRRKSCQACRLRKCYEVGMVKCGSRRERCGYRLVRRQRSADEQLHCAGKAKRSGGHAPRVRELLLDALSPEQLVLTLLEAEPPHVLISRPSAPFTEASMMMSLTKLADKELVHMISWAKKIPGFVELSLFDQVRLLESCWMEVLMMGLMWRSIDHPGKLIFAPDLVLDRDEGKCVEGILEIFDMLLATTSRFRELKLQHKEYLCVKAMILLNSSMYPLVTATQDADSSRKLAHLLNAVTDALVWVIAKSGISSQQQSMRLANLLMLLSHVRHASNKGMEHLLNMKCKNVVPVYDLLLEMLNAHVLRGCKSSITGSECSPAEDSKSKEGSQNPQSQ
# IC50 values compiled below
Reported metric: IC50

* CN1C(=O)N(CCN(CCO)CCO)C(c2ccc(C(F)(F)F)cc2)C2=C1c1ccccc1C2=O (stereo not given) | 0.31 µM
* CN(C)CCN1C(=O)N(C)C2=C(C(=O)c3ccccc32)C1c1ccc(C(F)(F)F)cc1 (stereo not given) | > 10 µM
* CN1C(=O)N(CCN2CCNCC2)C(c2ccc(C(F)(F)F)cc2)C2=C1c1ccccc1C2=O (stereo not given) | > 10 µM
* CN1CCN(CCN2C(=O)N(C)C3=C(C(=O)c4ccccc43)C2c2ccc(C(F)(F)F)cc2)CC1 (stereo not given) | > 10 µM
* CN1C(=O)N(N(C)CCC(Oc2ccc(C(F)(F)F)cc2)c2ccccc2)C(c2ccc(C(F)(F)F)cc2)C2=C1c1ccccc1C2=O (stereo not given) | > 10 µM
* CN1C(=O)NC(c2ccc(OCCN(CCO)CCO)cc2)C2=C1c1ccccc1C2=O (stereo not given) | 0.53 µM
* CN1CCN(CCOc2ccc(C3NC(=O)N(C)C4=C3C(=O)c3ccccc34)cc2)CC1 (stereo not given) | > 10 µM
* CN(C)CCOc1ccc(C2NC(=O)N(C)C3=C2C(=O)c2ccccc23)cc1 (stereo not given) | > 10 µM
* CN1CCN(CCOc2ccc(C3C4=C(c5ccccc5C4=O)N(C)C(=O)N3CC(F)(F)F)cc2)CC1 (stereo not given) | > 10 µM
* CN1C(=O)NC(c2ccc(C(F)(F)F)cc2)C2=C1c1ccccc1C2=O (stereo not given) | > 10 µM
* CN(CCOc1ccc(C2NC(=O)N(C)C3=C2C(=O)c2ccccc23)cc1)CCC(Oc1ccc(C(F)(F)F)cc1)c1ccccc1 (stereo not given) | > 10 µM
* CN1C(=O)N(CC(F)(F)F)C(c2ccc(OCCN3CCN(CC(F)(F)F)CC3)cc2)C2=C1c1ccccc1C2=O (stereo not given) | > 10 µM
* CN1C(=O)NC(c2ccc(OCCN3CCN(CC(F)(F)F)CC3)cc2)C2=C1c1ccccc1C2=O (stereo not given) | > 10 µM
* CN(C)CCOc1ccc(C2C3=C(c4ccccc4C3=O)N(C)C(=O)N2CC(F)(F)F)cc1 (stereo not given) | > 10 µM
* CN1C(=O)NC(c2ccc(OCCN3CCNCC3)cc2)C2=C1c1ccccc1C2=O (stereo not given) | > 10 µM
